study-system: native RSV F protein from the RSV A2 strain (Respiratory Syncytial Virus strain A2, UniProt P03420 26-574)
assay: cell-based or functional assay
measured-property: ED50, plaque reduction, RSV A2 (pM)
One number for each entry, in pM.

In the examples that follow, each entry is paired with its recorded ED50, plaque reduction, RSV A2.
Fab 90D3 (Fab, V domains shown) VH: QVQLVESGGGLVKPGGSLRLSCVGSGFTLKNYEMNWVRQAPGQGLQYISYISSSGNVVKYVDSVQGRFTISRDNAGNSLYLQMNNLRAEDTATYYCVRGFSIDKYDSSVDEYWGQGIAVTVSS VL: AIRLTQSPSSLSASVGDRVSITCRASQSISNFLNWYQQKPGRAPKLLISAASSLQGGVPSRFSGSGSGTDFTLTISSLQPEDFATYYCQQTYISLYTFGQGTKLEIKR | 800
Fab 56E11 (Fab, V domains shown, also called 56E11 Fab) VH: EVQLQESGPGLVKPSETLSLTCSVSGVSINSNNYFWAWIRQPPGKGLEWIGNIYYGGSTHYNASLQSRVTISVDTSKSQFSLKLNSVTSADTAVYYCAASESIFWDYYYGLDVWGQGTTVTVSS VL: QAVLTQPPSASGSPGQSVTISCTGTSSDVGGYNYVSWYQQHPGKAPRLIISEVTKRPSGVPGRFSGSKSGNTASLTVSGLQAEDEADYYCSSYAGSRHVVFGGGTKLTVLG | 930
Fab 17C9 (Fab, V domains shown, also called 17C9 Fab) VH: QVQLQQWGAGLVRPSETLSLTCAVYGDSFNDYFWTWIRQTPGKGLEWIGEISHSGSTNYSPSLKSRVTISVDTSKNQFSLKLSAVTAADTTVYFCARGVRSRPPPSYRGSGSPPYYHYGMDVWGQGTTVTVSS VL: EIVLTQSPSTLSASVGDRVTITCRASQNINTWLAWYQQKPGKAPKLLIYAASFLQSGVPSRFSGSGSGTDFTLTISNLQPEDFATYFCQQANSFPRTFGQGTKVEVKR | 352
Fab 104E5 (Fab, V domains shown) VH: QVQLEQSGAEVKKPGSSVKVSCKPSGGTFDTYTISWVRQAPGQRLEWLGRIIPSLGETNYAHKLQGRVTITADKATSVVYMDLSDLTSEDAAVYYCAFRITGPVDWVWDYGMDVWGQGTTVSVSS VL: DIQMTQSPSSLPASVGDRVTITCRASQNIKTYLNWYQQKPGRAPKLLISAVSNLQSGVPSRFSGTGSGTDFTLTISSLQPEDFATYYCQQSFSIPLTFGGGAKVEIKR | 580

INPUT: Name the recorded ED50, plaque reduction, RSV A2 for Fab 69F6 (Fab, V domains shown, also called 69F6 Fab) VH: QMQLVQSGAEVRKPGESLKIACKGSGYSFTSYWIAWVRQMPGKGLEWLGIIFPNDSDATYSPSFQGQVTMSVDKSISTAYLQWNSLKASDTAVYFCARQYYLGSFESWGQGTTVTVSS VL: EIVLTQSPSSLSASVGDRVTISCQASQDISNYLNWYQQKPGKAPRLLIYDASYLDTGVPSRFSGSGSGTDFTFTISSLQPEDFATYYCQQYDDLRGGFTFGPGTKVDVKR .
OUTPUT: 260
